Values were extracted from patent US20210255193A1.

# TARGET_UNDER_TEST: ABHD10 Abhydrolase domain-containing protein 10, mitochondrial (Homo sapiens, UniProt Q9NUJ1)
# Construct: endogenous in cells; host or cells: MDA-MB-231 lysate
# Sequence (Q9NUJ1 53-306): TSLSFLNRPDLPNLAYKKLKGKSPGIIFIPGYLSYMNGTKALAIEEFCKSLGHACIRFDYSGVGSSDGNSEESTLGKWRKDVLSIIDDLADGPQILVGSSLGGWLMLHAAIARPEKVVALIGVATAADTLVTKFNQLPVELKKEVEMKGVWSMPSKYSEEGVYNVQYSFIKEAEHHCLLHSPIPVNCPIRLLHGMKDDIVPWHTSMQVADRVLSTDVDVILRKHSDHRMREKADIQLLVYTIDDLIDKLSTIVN
# ASSAY_METHOD_TEXT: competitive isoTOP-ABPP
# Type: binding
# PARTICULARS: 50 uM_231_sol_in vitro
MEASUREMENT_KIND: isoTOP-ABPP ratio, lysine Q9NUJ1_K185
Respond using a number only.

*Q* // lookup isoTOP-ABPP ratio, lysine Q9NUJ1_K185 for NC(=O)c1cc(C(F)(F)F)cc(C(F)(F)F)c1 [fragment 51, reference compound]
*A* 1.0

*Q* Here is the next molecule: O=C(CCc1ccc2c(c1)OCO2)Oc1ccc([N+](=O)[O-])cc1[N+](=O)[O-]
*A* 1.2

*Q* // same read-out, input: O=C(ON1C(=O)CCC1=O)c1cc(C(F)(F)F)cc(C(F)(F)F)c1
*A* 1.2

*Q* And the next one, O=C(Oc1c(F)c(F)cc(F)c1F)c1cc(C(F)(F)F)cc(C(F)(F)F)c1 ?
*A* 2.7

*Q* Quick one: O=C(Oc1c(F)c(F)c(C(F)(F)F)c(F)c1F)c1cc(C(F)(F)F)cc(C(F)(F)F)c1
*A* 1.8

*Q* Likewise for N#Cc1ccc(C(=O)Oc2ccc([N+](=O)[O-])cc2[N+](=O)[O-])cc1 [fragment 44, 2,4-Dinitrophenyl 4-cyanobenzoate] ?
*A* 1.2

* * *

Please go through the items and note down their isoTOP-ABPP ratio (R) at liganded lysine Q15041_K188.
# TARGET_UNDER_TEST: ARL6IP1 ADP-ribosylation factor-like protein 6-interacting (Homo sapiens, UniProt Q15041)
# Construct: isoTOP-ABPP experiments performed in cell lysates (in vitro); endogenous in cells; host or cells: soluble proteome of human cancer cell lines (MDA-MB-231; Ramos and Jurkat also prepared)
# Sequence (Q15041 whole entry): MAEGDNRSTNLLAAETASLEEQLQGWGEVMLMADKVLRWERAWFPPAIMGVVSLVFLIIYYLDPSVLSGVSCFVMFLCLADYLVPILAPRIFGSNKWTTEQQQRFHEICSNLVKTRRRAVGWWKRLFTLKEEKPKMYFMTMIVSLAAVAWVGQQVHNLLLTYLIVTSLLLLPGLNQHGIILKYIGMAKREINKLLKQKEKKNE
# ASSAY_METHOD_TEXT: competitive isoTOP-ABPP
# Type: binding
# PARTICULARS: 50 uM, in vitro, sol, 231
A bare number is all that is needed in reply.

*Q* GET /values?readout=isoTOP-ABPP ratio (R) at liganded lysine Q15041_K188&item= O=C(Oc1ccc([N+](=O)[O-])cc1[N+](=O)[O-])c1ccc(-c2ccccc2)cc1
*A* 1.8

*Q* Okay, and O=C(Oc1ccc([N+](=O)[O-])cc1[N+](=O)[O-])C(c1ccccc1)(c1ccccc1)c1ccccc1 [fragment 42, 2,4-Dinitrophenyl 2,2,2-triphenylacetate] ?
*A* 1.1

*Q* Check O=C(CCc1coc2cc(F)ccc2c1=O)Oc1ccc([N+](=O)[O-])cc1[N+](=O)[O-] too.
*A* 1.6

*Q* Do the same for CC(=O)Oc1ccc([N+](=O)[O-])cc1[N+](=O)[O-] [fragment 43, 2,4-Dinitrophenyl acetate] please
*A* 1.4

*Q* Same again, this time with O=C(Oc1ccc([N+](=O)[O-])cc1[N+](=O)[O-])c1ccc(Oc2ccccc2)cc1 [fragment 39, 2,4-Dinitrophenyl 4-phenoxybenzoate]
*A* 1.7

*Q* Follow-up entry: CC(C)(C)OC(=O)NCCCC(=O)Oc1ccc([N+](=O)[O-])cc1[N+](=O)[O-]
*A* 1.3

*Q* Similarly, O=C(Oc1ccc([N+](=O)[O-])cc1[N+](=O)[O-])c1ccc2ccccc2n1 ?
*A* 1.4
